Record form. Attribute: IC50. Fill in for each entry.
Molecular target: FGFR4 V550L kinase (Homo sapiens, UniProt P22455, V550L)
Sequence (P22455 22-802 V550L): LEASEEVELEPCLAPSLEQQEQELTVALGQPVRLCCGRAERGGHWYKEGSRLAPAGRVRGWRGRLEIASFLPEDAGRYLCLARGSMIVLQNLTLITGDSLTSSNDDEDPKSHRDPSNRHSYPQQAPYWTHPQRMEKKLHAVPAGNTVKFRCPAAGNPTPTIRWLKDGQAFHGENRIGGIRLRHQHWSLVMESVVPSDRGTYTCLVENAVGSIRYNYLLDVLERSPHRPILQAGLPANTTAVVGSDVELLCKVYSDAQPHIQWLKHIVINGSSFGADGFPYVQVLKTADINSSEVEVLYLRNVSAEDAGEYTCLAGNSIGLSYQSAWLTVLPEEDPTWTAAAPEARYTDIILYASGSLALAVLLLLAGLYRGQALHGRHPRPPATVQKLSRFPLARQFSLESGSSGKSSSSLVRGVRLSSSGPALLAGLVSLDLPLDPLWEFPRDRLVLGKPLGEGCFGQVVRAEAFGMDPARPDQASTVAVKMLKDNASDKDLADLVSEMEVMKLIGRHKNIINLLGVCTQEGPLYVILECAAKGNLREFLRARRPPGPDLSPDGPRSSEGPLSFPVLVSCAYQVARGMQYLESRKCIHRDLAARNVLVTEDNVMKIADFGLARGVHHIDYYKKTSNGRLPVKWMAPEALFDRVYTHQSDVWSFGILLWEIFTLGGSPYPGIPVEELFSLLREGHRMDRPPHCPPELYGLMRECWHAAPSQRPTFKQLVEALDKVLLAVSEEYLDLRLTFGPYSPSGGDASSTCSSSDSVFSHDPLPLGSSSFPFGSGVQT
Experiment: Inhibition of FGFR4 V550L mutant kinase activity (ULight-labeled PolyGT, EU665/EU615 reading)
Details: FGFR4 V550L kinase 1 nM, ATP 10 μM, enzymatic reaction 2 hours

Please look at this molecule and report its IC50: C=CC(=O)Nc1cc(N2CCN(CC)CC2)ccc1Nc1ncc(C#N)c(Nc2cc(F)ccc2OC(C)C)n1
≤ 10 nM

Please look at this molecule and report its IC50: C=CC(=O)Nc1cc(N2CCC(N3CCC(F)(F)CC3)CC2)ccc1Nc1ncc(C#N)c(Nc2ccccc2OC(C)C)n1
50 to 100 nM

Please look at this molecule and report its IC50: C=CC(=O)Nc1cc(N2CCC(N3CCN(C)CC3=O)CC2)c(F)cc1Nc1ncc(C#N)c(Nc2ccccc2OC(C)C)n1
10 to 50 nM

Please look at this molecule and report its IC50: C=CC(=O)Nc1cc(N2CCC(N(C)CCF)CC2)ccc1Nc1ncc(C#N)c(Nc2ccccc2OC(C)C)n1
≤ 10 nM

Please look at this molecule and report its IC50: C=CC(=O)Nc1cc(N2CCC(N(C)CCSC)CC2)ccc1Nc1ncc(C#N)c(Nc2ccccc2OC(C)C)n1
≤ 10 nM

Please look at this molecule and report its IC50: C=CC(=O)Nc1cc(N2CCC(N3CCN(C)CC3)CC2)c(C)cc1Nc1ncc(C#N)c(Nc2ccccc2OC(C)C)n1
10 to 50 nM

Please look at this molecule and report its IC50: C=CC(=O)Nc1cc(N2CCN(C)CC2)c(C)cc1Nc1ncc(C#N)c(Nc2ccccc2OC(C)C)n1
10 to 50 nM

Please look at this molecule and report its IC50: C=CC(=O)Nc1cc(N2CCC(N3CCOCC3)CC2)ccc1Nc1ncc(C#N)c(Nc2ccccc2OC(C)C)n1
10 to 50 nM

Please look at this molecule and report its IC50: C=CC(=O)Nc1cc(N2CCC(N3CCN(C)CC3)CC2)ccc1Nc1ncc(C#N)c(Nc2ccccc2SC(C)C)n1
≤ 10 nM

Please look at this molecule and report its IC50: C=CC(=O)Nc1cc(N2CCC(N(C)CCCSC)CC2)ccc1Nc1ncc(C#N)c(Nc2ccccc2OC(C)C)n1
≤ 10 nM

Hi, could you look up IC50 for each item in my list?
1. C=CC(=O)Nc1cc(N2CCN(CC)CC2)ccc1Nc1ncc(C#N)c(Nc2c(F)cccc2OC(C)C)n1
2. C=CC(=O)Nc1cc(N2CCC(N(C)C)CC2)c(F)cc1Nc1ncc(C#N)c(Nc2ccccc2OC(C)C)n1
3. C=CC(=O)Nc1cc(N2CCC(N(C)C)CC2)ccc1Nc1ncc(C#N)c(Nc2ccccc2OC(C)C)n1
4. C=CC(=O)Nc1cc(N2CCN(CC)CC2)ccc1Nc1ncc(C#N)c(Nc2ccc(Cl)cc2OC(C)C)n1
5. C=CC(=O)Nc1cc(N2CCC(N3CCN(C)CC3)CC2)ccc1Nc1ncc(C#N)c(Nc2ccc(C(N)=O)cc2OC(C)C)n1
6. C=CC(=O)Nc1cc(N2CCN(CC)CC2)ccc1Nc1ncc(C#N)c(Nc2c(C)cccc2OC(C)C)n1
7. C=CC(=O)Nc1cc(N2CCC(N3CCN(C)CC3)CC2)ccc1Nc1ncc(C#N)c(Nc2ccccc2CC(C)C)n1

1. 10 to 50 nM
2. ≤ 10 nM
3. ≤ 10 nM
4. 10 to 50 nM
5. ≤ 10 nM
6. 100 to 1000 nM
7. 50 to 100 nM

###

Target: UniProt P22455
Record form. Attribute: IC50. Fill in for each entry.

Example cases with answers are listed next.
Enter measured IC50, system UniProt P22455, for the compound shown: C=CC(=O)Nc1cc(N2CCC(N(C)C3CCOC3)CC2)ccc1Nc1ncc(C#N)c(Nc2ccccc2OC(C)C)n1 (stereo not shown) [Example 77]
≤ 10 nM

Enter measured IC50, system UniProt P22455, for the compound shown: C=CC(=O)Nc1cc(N(C)CCN(C)C)c(OC)cc1Nc1ncc(C#N)c(Nc2ccccc2OC(C)C)n1 [Example 55]
10 to 50 nM

Enter measured IC50, system UniProt P22455, for the compound shown: C=CC(=O)Nc1cc(N2CCC(N3CCN(C)CC3=O)CC2)ccc1Nc1ncc(C#N)c(Nc2ccc(F)cc2OC(C)C)n1 [Example 47]
10 to 50 nM

Enter measured IC50, system UniProt P22455, for the compound shown: C=CC(=O)Nc1cc(N2CCC(N3CCN(C)CC3)CC2)ccc1Nc1ncc(C#N)c(Nc2ccc(C(N)=O)cc2OC(C)C)n1 [Example 41]
10 to 50 nM

Enter measured IC50, system UniProt P22455, for the compound shown: C=CC(=O)Nc1cc(N2CCN(CC)CC2)ccc1Nc1ncc(C#N)c(Nc2ccc(F)cc2OC(C)C)n1 [Example 27]
≤ 10 nM

Enter measured IC50, system UniProt P22455, for the compound shown: C=CC(=O)Nc1cc(N2CCC(N(C)C3CC3)CC2)ccc1Nc1ncc(C#N)c(Nc2ccccc2OC(C)C)n1 [Example 63]
≤ 10 nM

Alright, here's another compound for you.
Enter measured IC50, system UniProt P22455, for the compound shown: C=CC(=O)Nc1cc(N2CCC(N3CCCC3)CC2)c(C)cc1Nc1ncc(C#N)c(Nc2ccccc2OC(C)C)n1 [Example 10]
10 to 50 nM

###

Molecular target: Ba/F3 ETV6-FGFR4 cells (Homo sapiens)
Construct: fused on or other part: N-terminal part of ETV6 (TEL), the oligomerising partner that makes the FGFR4 kinase constitutively active; P41212 (Transcription factor ETV6)
Sequence (P22455 whole entry, change not shown, the tested form may be a part): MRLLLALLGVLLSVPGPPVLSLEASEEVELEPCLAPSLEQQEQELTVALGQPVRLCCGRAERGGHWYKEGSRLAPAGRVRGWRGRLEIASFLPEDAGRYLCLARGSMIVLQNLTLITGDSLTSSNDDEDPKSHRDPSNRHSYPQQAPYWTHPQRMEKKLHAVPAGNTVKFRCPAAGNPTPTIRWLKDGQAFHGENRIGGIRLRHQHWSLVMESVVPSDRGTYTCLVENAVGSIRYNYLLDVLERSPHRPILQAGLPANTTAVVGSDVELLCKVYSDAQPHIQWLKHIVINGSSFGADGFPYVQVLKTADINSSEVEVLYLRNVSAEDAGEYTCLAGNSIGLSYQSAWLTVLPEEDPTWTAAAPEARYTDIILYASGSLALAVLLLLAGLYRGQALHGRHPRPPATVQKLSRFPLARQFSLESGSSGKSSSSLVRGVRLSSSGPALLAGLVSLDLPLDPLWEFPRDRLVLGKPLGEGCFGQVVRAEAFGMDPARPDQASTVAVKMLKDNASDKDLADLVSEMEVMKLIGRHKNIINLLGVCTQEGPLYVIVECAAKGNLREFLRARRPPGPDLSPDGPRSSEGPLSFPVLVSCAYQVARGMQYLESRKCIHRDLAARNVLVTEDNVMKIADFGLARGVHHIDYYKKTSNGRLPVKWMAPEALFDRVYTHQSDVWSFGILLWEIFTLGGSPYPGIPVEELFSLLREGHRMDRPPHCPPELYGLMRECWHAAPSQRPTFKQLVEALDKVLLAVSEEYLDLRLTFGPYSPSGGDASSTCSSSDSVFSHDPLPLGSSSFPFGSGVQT
Assay: Inhibition of cell proliferation (CCK-8), Ba/F3 ETV6-FGFR4 cells
Format: cell-based
Details: 72 hours of incubation, read-out: Ba/F3 ETV6-FGFR4 IC50
Value Kind: GI50

Please look at this compound and report its GI50: C=CC(=O)Nc1cc(N2CCN(CC)CC2)ccc1Nc1ncc(C#N)c(Nc2cc(C(F)(F)F)ccc2OC(C)C)n1 [Example 26]
100 to 1000 nM

Please look at this compound and report its GI50: C=CC(=O)Nc1cc(N2CCN(CC)CC2)ccc1Nc1ncc(C#N)c(Nc2ccc(S(C)(=O)=O)cc2OC(C)C)n1 [Example 35]
10 to 50 nM

Please look at this compound and report its GI50: C=CC(=O)Nc1cc(N2CCC(N3CCS(=O)(=O)CC3)CC2)ccc1Nc1ncc(C#N)c(Nc2ccccc2OC(C)C)n1 [Example 76]
≤ 10 nM

Hi, could you look up GI50 for each item in my list?
1. C=CC(=O)Nc1cc(N2CCC(N3CCOCC3)CC2)ccc1Nc1ncc(C#N)c(Nc2ccccc2OC(C)C)n1 [Example 5]
2. C=CC(=O)Nc1cc(N2CCC(N3CCN(C)CC3=O)CC2)c(F)cc1Nc1ncc(C#N)c(Nc2ccccc2OC(C)C)n1 [Example 48]
3. C=CC(=O)Nc1cc(N2CCN(C3CCN(C)CC3)CC2)ccc1Nc1ncc(C#N)c(Nc2ccccc2OC(C)C)n1 [Example 49]

["≤ 10 nM", "≤ 10 nM", "≤ 10 nM"]

Please look at this compound and report its GI50: C=CC(=O)Nc1cc(N2CCC(N3CCCCC3)CC2)c(C)cc1Nc1ncc(C#N)c(Nc2ccccc2OC(C)C)n1 [Example 11]
10 to 50 nM

###

Biological target: FGFR4 V550L kinase (Homo sapiens, UniProt P22455, V550L)
Experiment: Inhibition of FGFR4 V550L mutant kinase activity (ULight-labeled PolyGT, EU665/EU615 reading)
Settings: FGFR4 V550L kinase 1 nM, ATP 10 μM, enzymatic reaction 2 hours
Record form. Attribute: IC50. Fill in for each entry.

Example cases with answers are listed next.
Please look at this compound and report its IC50: C=CC(=O)Nc1cc(N2CCN(CC)CC2)ccc1Nc1ncc(C#N)c(Nc2ccc(C3CC3)cc2OC(C)C)n1
10 to 50 nM

Please look at this compound and report its IC50: C=CC(=O)Nc1cc(N2CCC(N3CCN(C)CC3)CC2)ccc1Nc1ncc(C#N)c(Nc2ccc(C(=O)O)cc2OC(C)C)n1
≤ 10 nM

Please look at this compound and report its IC50: C=CC(=O)Nc1cc(N2CCC(N3CCN(C)CC3)CC2)ccc1Nc1ncc(C#N)c(Nc2ccc(F)cc2OC(C)C)n1
≤ 10 nM

Please look at this compound and report its IC50: C=CC(=O)Nc1cc(N2CCN(CC)CC2)ccc1Nc1ncc(C#N)c(Nc2cc(C#N)ccc2OC(C)C)n1
10 to 50 nM

Please look at this compound and report its IC50: C=CC(=O)Nc1cc(N2CCC(N3CCCC3)CC2)c(F)cc1Nc1ncc(C#N)c(Nc2ccccc2OC(C)C)n1
10 to 50 nM

Please look at this compound and report its IC50: C=CC(=O)Nc1cc(N2CCC(N3CCOCC3)CC2)c(F)cc1Nc1ncc(C#N)c(Nc2ccccc2OC(C)C)n1
10 to 50 nM

Please look at this compound and report its IC50: C=CC(=O)Nc1cc(N2CCC(N3CCC3)CC2)ccc1Nc1ncc(C#N)c(Nc2ccccc2OC(C)C)n1
≤ 10 nM

Please look at this compound and report its IC50: C=CC(=O)Nc1cc(N2CCC(N3CCCC3)CC2)c(C)cc1Nc1ncc(C#N)c(Nc2ccccc2OC(C)C)n1
10 to 50 nM

Hi, could you look up IC50 for each item in my list?
1. C=CC(=O)Nc1cc(N2CCC(N(C)CCO)CC2)ccc1Nc1ncc(C#N)c(Nc2ccccc2OC(C)C)n1
2. C=CC(=O)Nc1cc(N2CCN(CC)CC2)ccc1Nc1ncc(C#N)c(Nc2ccc(OC)cc2OC(C)C)n1
3. C=CC(=O)Nc1cc(N2CCC(N3CCN(C)C(=O)C3)CC2)c(F)cc1Nc1ncc(C#N)c(Nc2ccccc2OC(C)C)n1
4. C=CC(=O)Nc1cc(N2CCC(N3CCCCC3)CC2)c(F)cc1Nc1ncc(C#N)c(Nc2ccccc2OC(C)C)n1

["≤ 10 nM", "10 to 50 nM", "10 to 50 nM", "10 to 50 nM"]

Hi, could you look up IC50 for each item in my list?
1. C=CC(=O)Nc1cc(N2CCC(N(C)C3CCC3)CC2)ccc1Nc1ncc(C#N)c(Nc2ccccc2OC(C)C)n1
2. C=CC(=O)Nc1cc(N2CCC(N3CCS(=O)(=O)CC3)CC2)ccc1Nc1ncc(C#N)c(Nc2ccccc2OC(C)C)n1
3. C=CC(=O)Nc1cc(N2CCN(C(C)C)CC2)ccc1Nc1ncc(C#N)c(Nc2ccccc2OC(C)C)n1

["10 to 50 nM", "10 to 50 nM", "≤ 10 nM"]
